tested on: Saccharomyces cerevisiae; test: protein stability index of tFT-peptide fusion (C-terminal peptide) (PSI (0-1 scale)); higher = more stable (slower turnover); settings: genetic background: das1 deletion; temperature: 37 C
The entries below come with measured protein stability index values attached.
readout_type: protein stability index

• GGGVGVVWVRLG = 0.72
• AGESLRAIAVLY = 0.66
• LLSGHFRLLLAF = 0.23
• TLFSPPVLATPS = 0.676
• RFVLVFLVSLII = 0.541
• VIQNKKKNKITS = 0.736
• RDYIAAKLVVCG = 0.488

----------
test system: Saccharomyces cerevisiae; experiment: protein stability index of tFT-peptide fusion (C-terminal peptide) (PSI (0-1 scale)); higher = more stable (slower turnover); settings: genetic background: wild type; temperature: 37 C
readout_type: protein stability index

- LWFFVGFAVYGG: 0.497
- VLVTFFIRSGVS: 0.499
- CFFSLLLLIFSV: 0.448
- FNLTCLLISFFN: 0.553
- WLFAILPSRLIA: 0.0638
- VQVLVAIMDGRM: 0.39
- TLFSPPVLATPS: 0.644
- TSLPPSPPPSPT: 0.562
- RYQDLSDWRRIS: 0.0794
- VDGVSFFVVLLC: 0.427
- YVIGLLFVVSGV: 0.385
- SLSIFCLMLMLF: 0.512
- FMPFSLLALFVW: 0.328
- LNVEEGGGLENV: 0.699
- LDLSSVFILYFN: 0.544
- RGSLYLILVLIG: 0.268
- VSLSWFSCCFVG: 0.458
- VCSRWFFVFVVR: 0.492
- CALLLLSVRAGQ: 0.565
- PVSEPCAWRIIA: 0.0736
- WFFPVSPPVMAS: 0.265

----------
test system: Saccharomyces cerevisiae; assay: protein stability index of tFT-peptide fusion (C-terminal peptide) (PSI (0-1 scale)); higher = more stable (slower turnover); details: genetic background: wild type; temperature: 30 C
The entries below are paired with their reported protein stability index.
readout_type: protein stability index

* SLLFLRFLFSTP | 0.705
* PPPPPPPPPCSP | 0.705
* PRLIESYRPITS | 0.715
* RDPLAPLLLAIP | 0.698

----------
Entries and their protein stability index
test system: Saccharomyces cerevisiae; assay: protein stability index of tFT-peptide fusion (C-terminal peptide) (PSI (0-1 scale)); higher = more stable (slower turnover); details: genetic background: wild type; temperature: 30 C
readout_type: protein stability index

• GIVRHLIDSVKL [ACS1 C-terminal 12 aa] = 0.688
• VFGGCATTWIVL [ATS1 C-terminal 12 aa] = 0.692
• FVSHSRFFNRGT [VPS53 C-terminal 12 aa] = 0.696
• PENGSLFEFDDN [SNU66 C-terminal 12 aa] = 0.684
• SPPLSTSPDSRR [YLR416C C-terminal 12 aa] = 0.713
• TVSLPSRYSRYN [ALR2 C-terminal 12 aa] = 0.684
• TNWGQHKTVQNT [PPE1 C-terminal 12 aa] = 0.713
• KDWLIKTRKTSL [TVS1 C-terminal 12 aa] = 0.693
• SPGYKAYLREER [YSF3 C-terminal 12 aa] = 0.685
• KFDIVDQLLSTL [RSM24 C-terminal 12 aa] = 0.684
• SESNDGESSDSD [RPA43 C-terminal 12 aa] = 0.718
• EELEAEQIDVFS [PRP8 C-terminal 12 aa] = 0.684
• LLAKKKLKPNLL [YGR293C C-terminal 12 aa] = 0.7
• VNERSHDVKFTK [YIL165C C-terminal 12 aa] = 0.689
